System: COLO 205 colon
test summary: NCI tumour cell line growth inhibition, 48 h
Give TGI for every item shown.
Expressed in µM, but write only the number.

Exam item: Endpoint output: TGI of O=C1c2[nH]c3ccccc3c2CCN2CCCCC12 (stereo not given) . Value?
Marked response: 34.9

Exam item: Could you tell me which TGI is on file for `CC/C=C/C[C@H](O[Si](C)(C)C(C)(C)C)[C@H]1C[C@H]2O[C@H]([C@@H](O)C#C[Si](C)(C)C)C[C@H]2O1` ?
Marked response: 28.2

* * *

Test system: NCI/ADR-RES ovarian
test summary: NCI tumour cell line growth inhibition, 48 h; in the data active = GI50 below about 0.43 µM; inactive = the rest
Answer with one of the outcomes given here: 1.0 (active), 0.0 (inactive)

Exam item: Please let me know the test result on file for `COc1ccc(/C=C/C(=O)c2cc3c(N)c(C(=O)Nc4cccc(Cl)c4C)sc3nc2C)cc1` .
Marked response: 1.0

Exam item: Outcome? `COc1cc(/C=C/c2cc(/C=C/c3ccc(O)c(OC)c3)n(-c3c(Cl)cccc3Cl)c(=O)n2)ccc1O`
Marked response: 0.0

Exam item: How was CC1(C)CN(c2cc(C(F)(F)F)cc3cncn23)CCC12NC(=O)NC2=O (stereo not drawn) classified in this test?
Marked response: 0.0

Exam item: Name the outcome recorded for `CCn1c(=O)c(Oc2ccc(F)cc2F)cc2cnc(NC3CCOCC3)nc21` in the assay.
Marked response: 0.0

Exam item: Identify the outcome logged in this assay for the compound shown: `COc1cc2c3c(n(CCCNCCNCCN)c(=O)c2cc1OC)-c1cc2c(cc1C3=O)OCO2`
Marked response: 0.0

Exam item: Tell me the recorded outcome of this test for `CCN(CC)Cc1cc(Nc2c3ccc(Cl)cc3nc3ccc(OC)cc23)ccc1O` .
Marked response: 0.0

Exam item: Could you kindly confirm the outcome this assay logged for `NC1CCCCC1N.Nc1c(N=Nc2ccc(-c3ccc(N=Nc4cc(S(=O)(=O)[O-])c5ccccc5c4N)cc3)cc2)cc(S(=O)(=O)[O-])c2ccccc12.[OH3+].[OH3+].[Pt+4]` ?
Marked response: 0.0

Exam item: Entry `O=C(c1ccc(Cl)cc1)c1no[n+]([O-])c1C(=O)c1ccc(Cl)cc1` : call = ?
Marked response: 0.0

Exam item: So what was the verdict on `COc1cc2ccnc(C=O)c2cc1OC` in this test?
Marked response: 0.0

Exam item: Entry `COc1ccc(-c2cc(-c3ccccc3)nc(SCCCC(=O)NO)n2)cc1OC` : call = ?
Marked response: 0.0

Exam item: Lab log entry: `COc1cc(-c2ccc(-c3ccc(C(=N)N)cc3)s2)cc(OC)c1OC` — outcome as called in the assay?
Marked response: 0.0

Exam item: Recorded test outcome, item Clc1ccc2c(c1)C(Br)c1cc(Cl)cc(Cl)c1-2 (stereo not drawn)
Marked response: 0.0

Exam item: Status in this test for `O=C(Nc1ccc(OCc2nnc(-c3ccc(Cl)cc3)o2)c(F)c1)c1ccc(Cl)c(C(F)(F)F)c1` ?
Marked response: 0.0
